Provenance of the data: paper PMC5490826

# tested target: NS5B Δ21 3a (Hepatitis C virus (isolate NZL1), UniProt Q81258)
# Sequence (Q81258 2431-3000, stated change not applied): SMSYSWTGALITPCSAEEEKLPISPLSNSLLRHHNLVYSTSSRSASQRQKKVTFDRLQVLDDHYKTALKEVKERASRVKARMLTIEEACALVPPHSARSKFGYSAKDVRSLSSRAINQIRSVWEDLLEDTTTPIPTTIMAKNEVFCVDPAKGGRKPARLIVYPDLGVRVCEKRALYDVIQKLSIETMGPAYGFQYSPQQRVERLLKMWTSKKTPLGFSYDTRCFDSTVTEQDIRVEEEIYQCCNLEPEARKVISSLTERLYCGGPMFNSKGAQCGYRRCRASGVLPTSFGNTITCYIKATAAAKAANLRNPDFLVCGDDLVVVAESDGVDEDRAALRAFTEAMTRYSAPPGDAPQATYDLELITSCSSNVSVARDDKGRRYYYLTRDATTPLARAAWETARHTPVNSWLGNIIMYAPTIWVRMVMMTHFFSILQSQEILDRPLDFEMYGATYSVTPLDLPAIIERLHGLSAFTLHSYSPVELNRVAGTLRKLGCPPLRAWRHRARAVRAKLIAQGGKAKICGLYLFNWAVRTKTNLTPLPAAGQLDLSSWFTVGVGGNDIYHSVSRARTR
# condition info: read-out: Lomibuvir / 3a (±SD); pH 7.4, 25 °C, 10 mM MgCl2, 130 mM NaCl, 3% DMSO; allosteric, thumb II site
assay metric: Kd

Problem: What value of Kd has been reported for the following compound? `CC(C)(C)C#Cc1cc(N(C(=O)[C@H]2CC[C@H](C)CC2)[C@H]2CC[C@H](O)CC2)c(C(=O)O)s1`
Result: > 2 µM

====

# tested target: NS5B Δ21 1b Con1 (Hepatitis C virus (isolate Con1), UniProt Q9WMX2)
# test description: SPR (Biacore), kinetic two-state model, immobilized enzyme
assay metric: pKd
Scale note: pKd = -log10(concentration in M).

Problem: What value of pKd has been reported for the following compound? `CC(C)(C)C#Cc1cc(N(C(=O)[C@H]2CC[C@H](C)CC2)[C@H]2CC[C@H](O)CC2)c(C(=O)O)s1`
Result: 7.72
